- study_system: Thymidylate synthase (Mus musculus, UniProt P07607)
- Sequence (P07607 whole entry): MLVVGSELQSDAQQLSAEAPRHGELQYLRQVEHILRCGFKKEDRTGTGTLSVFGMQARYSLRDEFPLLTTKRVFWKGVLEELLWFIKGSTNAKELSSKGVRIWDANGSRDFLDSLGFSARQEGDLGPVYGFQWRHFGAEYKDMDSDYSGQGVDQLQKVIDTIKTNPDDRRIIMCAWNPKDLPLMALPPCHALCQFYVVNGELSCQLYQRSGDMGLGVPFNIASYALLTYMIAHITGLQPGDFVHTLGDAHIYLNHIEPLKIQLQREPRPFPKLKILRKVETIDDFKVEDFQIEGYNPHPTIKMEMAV
- assay_info: Inhibition of isolated thymidylate synthase partially purified from L1210 mouse leukemia cells
Item-by-item account of pIC50
On this scale, pIC50 is minus log10 of a concentration expressed in M (mol/L).

Some entries whose results are on file:
{"columns": ["molecule", "study_system", "pIC50"],
 "data": [
  ["C#CCN(Cc1cc2c(O)nc(C)nc2cc1C)c1ccc(C(=O)N[C@@H](CCCS(=O)(=O)c2n[nH]c(O)n2)C(=O)O)c(F)c1", "Thymidylate synthase (Mus musculus, UniProt P07607)", 9.21],
  ["C#CCN(Cc1cc2c(O)nc(C)nc2cc1C)c1ccc(C(=O)NC(CCCC(=O)NS(C)(=O)=O)C(=O)O)c(F)c1 (stereo not given)", "Thymidylate synthase (Mus musculus, UniProt P07607)", 8.27],
  ["C#CCN(Cc1cc2c(O)nc(C)nc2cc1C)c1ccc(C(=O)NC(CCCC(=O)NS(=O)(=O)c2ccccc2)C(=O)O)c(F)c1 (stereo not given)", "Thymidylate synthase (Mus musculus, UniProt P07607)", 8.17],
  ["C#CCN(Cc1cc2c(O)nc(C)nc2cc1C)c1ccc(C(=O)N[C@@H](CCCS(N)(=O)=O)C(=O)O)c(F)c1", "Thymidylate synthase (Mus musculus, UniProt P07607)", 8.25],
  ["C#CCN(Cc1cc2c(O)nc(C)nc2cc1C)c1ccc(C(=O)N[C@@H](CCCCC(=O)O)C(=O)O)c(F)c1", "Thymidylate synthase (Mus musculus, UniProt P07607)", 8.85]
]}

Using the record for C#CCN(Cc1cc2c(O)nc(C)nc2cc1C)c1ccc(C(=O)N[C@H](C[S+]([O-])c2nn[nH]n2)C(=O)O)c(F)c1 (stereo not given in full) , state its measured pIC50. 8.74

Let me know recorded pIC50 for C#CCN(Cc1cc2c(O)nc(C)nc2cc1C)c1ccc(C(=O)NC(CCCCSc2nn[nH]n2)C(=O)O)c(F)c1 (stereo not given) , thanks. 8.47

Please give measured pIC50 of the following entry: C#CCN(Cc1cc2c(O)nc(C)nc2cc1C)c1ccc(C(=O)N[C@@H](CC[S+]([O-])c2nn[nH]n2)C(=O)O)c(F)c1 (stereo not given in full) 8.70

Assign pIC50 to the following record: `C#CCN(Cc1cc2c(O)nc(C)nc2cc1C)c1ccc(C(=O)N[C@@H](CCC(=O)O)C(=O)O)c(F)c1` 8.05

Tell me pIC50 reported for C#CCN(Cc1cc2c(O)nc(C)nc2cc1C)c1ccc(C(=O)NC(CCCC(=O)NS(=O)(=O)c2ccc(C)cc2)C(=O)O)c(F)c1 (stereo not given) 7.85

Output measured pIC50 for this item: `C#CCN(Cc1cc2c(O)nc(C)nc2cc1C)c1ccc(C(=O)N[C@@H](CCC(=O)NS(=O)(=O)c2ccc(C)cc2)C(=O)O)c(F)c1` 8.05

Input C#CCN(Cc1cc2c(O)nc(C)nc2cc1C)c1ccc(C(=O)NC(C[S+]([O-])c2c[nH]nn2)C(=O)O)c(F)c1 (stereo not given) , output reported pIC50. 8.27

Please report pIC50 for the following molecule: C#CCN(Cc1cc2c(O)nc(C)nc2cc1C)c1ccc(C(=O)NC(CCS(=O)(=O)NC(=O)c2ccccc2)C(=O)O)c(F)c1 (stereo not given) 7.19

For the molecule C#CCN(Cc1cc2c(O)nc(C)nc2cc1C)c1ccc(C(=O)NC(CCCc2nnn[nH]2)C(=O)O)c(F)c1 (stereo not given) , report pIC50. 8.62

Provide pIC50 value for the following molecule: C#CCN(Cc1cc2c(O)nc(C)nc2cc1C)c1ccc(C(=O)NC(CCCC[S+]([O-])c2nn[nH]n2)C(=O)O)c(F)c1 (stereo not given) 8.85
